- ASSAYED SYSTEM: human GPRC5D (human, UniProt Q9NZD1 1-345)
- Sequence (Q9NZD1 whole entry): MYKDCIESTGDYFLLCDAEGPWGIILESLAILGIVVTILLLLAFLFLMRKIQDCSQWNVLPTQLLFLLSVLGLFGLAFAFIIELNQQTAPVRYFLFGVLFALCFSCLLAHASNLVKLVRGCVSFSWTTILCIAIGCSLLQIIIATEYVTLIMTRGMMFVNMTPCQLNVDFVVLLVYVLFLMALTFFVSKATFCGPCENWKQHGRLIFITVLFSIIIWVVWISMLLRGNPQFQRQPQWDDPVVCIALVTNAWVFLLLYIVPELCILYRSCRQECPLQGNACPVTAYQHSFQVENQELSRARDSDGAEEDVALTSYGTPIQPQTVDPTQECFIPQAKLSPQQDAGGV
- EXPERIMENT DESCRIPTION: cell-based or functional assay
Returns one of yes (1) or no (0); yes (1) when CAR-J2 EC50 [ng/mL] (PGLALA-CAR-J activation, L363 target cells) is >= 200 ng/mL.

# bool: CAR-J2 EC50 [ng/mL] (PGLALA-CAR-J activation, L363 target cells) of P1AE5735 (antibody, V domains shown, Humanized 5F11 IgG; PGLALA Fc implied by the CAR-J assay; also called 5F11_VH1a + 5F11_VL1b) VH: QVQLVESGGGVVQPGRSLRLSCAASGFSFSNYGMAWVRQAPGKGLEWVASISTGGGNTYYRDSVKGRFTISRDNSKNTLYLQMNSLRAEDTAVYYCTRHDRGGLYWGQGTMVTVSS VL: DIVMTQSPLSLPVTPGEPASISCRSSKSLLHSNGITYVYWYLQKPGKSPQVLIYRMSNLASGVPDRFSGSGSGTDFTLKISRVEAEDVGVYHCGQLLENPYTFGQGTKLEIK >= 200 ng/mL no (0)

Check the entry P1AE5750 (antibody, V domains shown, Humanized 5F11 IgG; PGLALA Fc implied by the CAR-J assay; also called 5F11_VH1d + 5F11_VL1a) VH: EVQLVESGGGVVQPGRSLRLSCAASGFSFSNYGMAWVRQAPGKGLEWVASISTGGGNTYYADSVKGRFTISRDNAKNTLYLQMNSLRAEDTAVYYCTRHDRGGLYWGQGTMVTVSS VL: DIVMTQSPLSLPVTPGEPASISCRSSKSLLHSNGITYVYWYLQKPGQSPQVLIYRMSNLASGVPDRFSGSGSGTDFTLKISRVEAEDVGVYHCGQLLENPYTFGQGTKLEIK : does CAR-J2 EC50 [ng/mL] (PGLALA-CAR-J activation, L363 target cells) equal or exceed 200 ng/mL? no (0)

Record P1AE5762 (antibody, V domains shown, Humanized 5F11 IgG; PGLALA Fc implied by the CAR-J assay; also called 5F11_VH2d + 5F11_VL2a) VH: EVQLVESGGGLVQPGGSLRLSCAASGFSFSNYGMAWVRQAPGKGLEWVASISTGGGNTYYADSVKGRFTISRDNAKNTLYLQMNSLRAEDTAVYYCTRHDRGGLYWGQGTMVTVSS VL: DIVMTQSPLSLPVTPGEPASISCRSSKSLLHSNGITYVYWYLQKPGQSPQLLIYRMSNRASGVPDRFSGSGSGTDFTLKISRVEAEDVGVYHCGQLLENPYTFGQGTKLEIK ; criterion: CAR-J2 EC50 [ng/mL] (PGLALA-CAR-J activation, L363 target cells) no lower than 200 ng/mL. Met? no (0)

For this binder, is measured CAR-J2 EC50 [ng/mL] (PGLALA-CAR-J activation, L363 target cells) 200 ng/mL or higher? P1AE5752 (antibody, V domains shown, Humanized 5F11 IgG; PGLALA Fc implied by the CAR-J assay; also called 5F11_VH1d + 5F11_VL2a) VH: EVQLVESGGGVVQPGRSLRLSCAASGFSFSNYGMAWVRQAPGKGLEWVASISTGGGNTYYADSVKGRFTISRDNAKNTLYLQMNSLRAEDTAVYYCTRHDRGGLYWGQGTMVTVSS VL: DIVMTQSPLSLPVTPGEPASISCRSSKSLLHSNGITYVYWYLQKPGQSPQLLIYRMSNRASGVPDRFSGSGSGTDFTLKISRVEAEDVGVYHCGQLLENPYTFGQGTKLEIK yes (1)

Could you verify whether the entry P1AE5764 (antibody, V domains shown, Humanized 5F11 IgG; PGLALA Fc implied by the CAR-J assay; also called 5F11_VH2d + 5F11_VL2c) VH: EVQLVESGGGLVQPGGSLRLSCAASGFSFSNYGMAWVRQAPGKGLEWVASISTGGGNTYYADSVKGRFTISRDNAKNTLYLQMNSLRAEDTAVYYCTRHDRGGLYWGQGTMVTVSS VL: EIVLTQSPGTLSLSPGERATLSCRASKSLLHSNGITYVYWYQQKPGQAPRLLIYRMSNLASGIPDRFSGSGSGTDFTLTISRLEPEDFAVYHCGQLLENPYTFGQGTKLEIK shows CAR-J2 EC50 [ng/mL] (PGLALA-CAR-J activation, L363 target cells) of no less than 200 ng/mL? no (0)

Test whether the binder P1AE5742 (antibody, V domains shown, Humanized 5F11 IgG; PGLALA Fc implied by the CAR-J assay; also called 5F11_VH1b + 5F11_VL2b) VH: EVQLVESGGGVVQPGRSLRLSCAASGFSFSNYGMAWVRQAPGKGLEWVASISTGGGNTYYRDSVKGRFTISRDNAKNTLYLQMNSLRAEDTAVYYCTRHDRGGLYWGQGTMVTVSS VL: DIVMTQSPDSLAVSLGERATINCKSSKSLLHSNGITYVYWYQQKPGQPPKLLIYRMSNLASGVPDRFSGSGSGTDFTLTISSLQAEDVAVYHCGQLLENPYTFGQGTKLEIK records CAR-J2 EC50 [ng/mL] (PGLALA-CAR-J activation, L363 target cells) of 200 ng/mL or higher. no (0)

hey, is CAR-J2 EC50 [ng/mL] (PGLALA-CAR-J activation, L363 target cells) for this one >= 200 ng/mL? P1AE5761 (antibody, V domains shown, Humanized 5F11 IgG; PGLALA Fc implied by the CAR-J assay; also called 5F11_VH2d + 5F11_VL1b) VH: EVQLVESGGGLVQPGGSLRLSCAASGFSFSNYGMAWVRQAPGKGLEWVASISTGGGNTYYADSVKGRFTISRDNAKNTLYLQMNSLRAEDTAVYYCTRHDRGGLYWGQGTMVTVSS VL: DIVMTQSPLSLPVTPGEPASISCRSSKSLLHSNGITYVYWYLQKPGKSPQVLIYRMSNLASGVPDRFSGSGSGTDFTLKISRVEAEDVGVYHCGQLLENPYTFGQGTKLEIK no (0)

Is the recorded value of CAR-J2 EC50 [ng/mL] (PGLALA-CAR-J activation, L363 target cells) equal to or greater than 200 ng/mL for this binder? P1AE5746 (antibody, V domains shown, Humanized 5F11 IgG; PGLALA Fc implied by the CAR-J assay; also called 5F11_VH1c + 5F11_VL2a) VH: QVQLVESGGGVVQPGRSLRLSCAASGFSFSNYGMAWVRQAPGKGLEWVASISTGGGNTYYADSVKGRFTISRDNSKNTLYLQMNSLRAEDTAVYYCTRHDRGGLYWGQGTMVTVSS VL: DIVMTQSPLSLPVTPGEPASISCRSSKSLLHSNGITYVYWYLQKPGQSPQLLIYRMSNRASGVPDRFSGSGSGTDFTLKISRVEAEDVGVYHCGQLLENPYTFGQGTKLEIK yes (1)

Check the entry P1AE5747 (antibody, V domains shown, Humanized 5F11 IgG; PGLALA Fc implied by the CAR-J assay; also called 5F11_VH1c + 5F11_VL2b) VH: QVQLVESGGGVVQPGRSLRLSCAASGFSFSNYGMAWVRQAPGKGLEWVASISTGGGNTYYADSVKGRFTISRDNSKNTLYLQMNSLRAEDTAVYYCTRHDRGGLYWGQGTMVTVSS VL: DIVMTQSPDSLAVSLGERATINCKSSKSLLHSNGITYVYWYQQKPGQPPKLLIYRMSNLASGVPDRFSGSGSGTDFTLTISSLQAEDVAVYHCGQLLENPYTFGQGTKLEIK : does CAR-J2 EC50 [ng/mL] (PGLALA-CAR-J activation, L363 target cells) equal or exceed 200 ng/mL? no (0)

Could you please find out whether P1AE5743 (antibody, V domains shown, Humanized 5F11 IgG; PGLALA Fc implied by the CAR-J assay; also called 5F11_VH1b + 5F11_VL2c) VH: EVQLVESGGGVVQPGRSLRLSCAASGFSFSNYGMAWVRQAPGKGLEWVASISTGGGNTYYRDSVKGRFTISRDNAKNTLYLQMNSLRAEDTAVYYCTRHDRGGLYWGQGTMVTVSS VL: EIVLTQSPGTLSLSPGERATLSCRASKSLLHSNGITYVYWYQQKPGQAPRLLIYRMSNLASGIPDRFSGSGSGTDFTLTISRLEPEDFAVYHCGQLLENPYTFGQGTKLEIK has CAR-J2 EC50 [ng/mL] (PGLALA-CAR-J activation, L363 target cells) that meets 200 ng/mL or exceeds it? yes (1)
